Test system: Monocotyledonous and dicotyledonous test plants
Experiment: Herbicidal action before emergence of the plants (pre-emergence action), greenhouse pot test, 9-level rating after 4 weeks
Format: in vivo
Details: Echino., 250 g/ha, rated after 4 weeks, 9-level scale
Measured Pre-emergence action rating, Echino. by item
// response body must contain only the number

Worked cases, Pre-emergence action rating, Echino. given:
Please report the recorded Pre-emergence action rating, Echino. for O=C(C1=C(O)C2CCC(C2)C1=O)c1ccc(C(F)(F)F)nc1COCCCl (stereo not drawn) .
1

Quick one: Pre-emergence action rating, Echino. of CC#CCOCc1nc(C(F)(F)F)ccc1C(=O)C1=C(O)C2CCC(C2)C1=O (stereo not drawn) ?
1

Next:
// Pre-emergence action rating, Echino. lookup, key: COCC(Br)COCc1nc(C(F)(F)F)ccc1C(=O)C1=C(O)C2CCC(C2)C1=O (stereo not drawn)
2

I'd like to know its Pre-emergence action rating, Echino.. The compound in question is "COCCOCc1nc(C(F)(F)F)ccc1C(=O)c1cnn(C)c1OS(C)(=O)=O"
2

Recorded Pre-emergence action rating, Echino. for "COCCOCc1nc(C(F)(F)F)ccc1C(=O)C1=C(O)CCC(C)(C)C1=O" , please?
1

Entry CCN(CC)CC.COCCOCc1nc(C(F)(F)F)ccc1C(=O)C1=C(O)C2CCC(C2)C1=O (stereo not drawn) [A10-B52 (Et3NH+)] has what Pre-emergence action rating, Echino.?
2

Using the record for CCCOCCOCc1nc(C(F)(F)F)ccc1C(=O)C1=C(O)C2CCC(C2)C1=O (stereo not drawn) , report its Pre-emergence action rating, Echino..
1

Request the reported Pre-emergence action rating, Echino. associated with "COCCOCc1nc(C(F)(F)F)ccc1C(=O)C1=C(O)CCCC1=O"
2

I have this compound here, "CC(C)OCc1nc(C(F)(F)F)ccc1C(=O)c1cnn(C)c1O" , and I need its recorded Pre-emergence action rating, Echino..
2

====

System: Monocotyledonous and dicotyledonous test plants
Assay: Herbicidal action before emergence of the plants (pre-emergence action), greenhouse pot test, 9-level rating after 4 weeks
Format: in vivo
Conditions: Echino., 250 g/ha, rated after 4 weeks, 9-level scale
Parameter Measured: Pre-emergence action rating, Echino.
Could you respond with only the numeric value?

# Pre-emergence action rating, Echino. lookup, item O=C(C1=C(O)C2CCC(C2)C1=O)c1ccc(C(F)(F)F)nc1COC1CCCCO1 (centres unmarked)
2

Please report the recorded Pre-emergence action rating, Echino. for "COCc1nc(C(F)(F)F)ccc1C(=O)c1cnn(C)c1O" .
1

Form field: reported Pre-emergence action rating, Echino. of O=C(C1=C(O)C2CCC(C2)C1=O)c1ccc(C(F)(F)F)nc1COCC(F)(F)F (centres unmarked)
1

Continuing:
Would you mind telling me what Pre-emergence action rating, Echino. value was observed for O=C(C1=C(O)C2CCC(C2)C1=O)c1ccc(C(F)(F)F)nc1COCC1COCO1 (centres unmarked) ?
1

Value lookup for Pre-emergence action rating, Echino.; key = "COCCOCc1nc(C(F)(F)F)ccc1C(=O)C1=C(O)CCC2(CC2)C1=O"
1

====

Test system: Monocotyledonous and dicotyledonous test plants
Assay: Post-emergence herbicidal action, greenhouse pot test, sprayed at the 2- to 3-leaf stage, 9-level rating after 2 to 3 weeks
Format: in vivo
Details: Ipopur., 250 g/ha, rated after 2 to 3 weeks, 9-level scale
Parameter Measured: Post-emergence action rating, Ipopur.
Enter a number only.

I have this compound here, CCN(CC)CC.O=C(C1=C(O)C2CCC(C2)C1=O)c1ccc(C(F)(F)F)nc1COC1CCCCO1 (centres unmarked) [A28-B52 (Et3NH+)] , and I need its recorded Post-emergence action rating, Ipopur..
2

Requested read-out: Post-emergence action rating, Ipopur.. Entry: CCOC(C)OCCOCc1nc(C(F)(F)F)ccc1C(=O)C1=C(O)C2CCC(C2)C1=O (centres unmarked)
2

I have this compound here, CC(C)(C)C(=O)OC1=C(C(=O)c2ccc(C(F)(F)F)nc2COCCO)C(=O)C2CCC1C2 (centres unmarked) , and I need its recorded Post-emergence action rating, Ipopur..
3

For the compound shown here, O=C(C1=C(O)C2CCC(C2)C1=O)c1ccc(C(F)(F)F)nc1COCC1CO1 (centres unmarked) , give the reported Post-emergence action rating, Ipopur..
2

Suppose we examine the compound COc1cc(OC)nc(SCc2nc(C(F)(F)F)ccc2C(=O)C2=C(O)C3CCC(C3)C2=O)n1 (centres unmarked) ; what Post-emergence action rating, Ipopur. value has been reported?
5

Next:
Item "COCCOCc1nc(C(F)(F)F)ccc1C(=O)C1=C(O)CCC2(CC2)C1=O" has what recorded Post-emergence action rating, Ipopur.?
2

Reported Post-emergence action rating, Ipopur. for CCCOCCOCc1nc(C(F)(F)F)ccc1C(=O)C1=C(O)C2CCC(C2)C1=O (centres unmarked) : what is it?
3

What Post-emergence action rating, Ipopur. value was documented for this compound, "COCCOCc1nc(C(F)(F)F)ccc1C(=O)C1=C(O)C(C)(C)ON(C)C1=O" ?
3

So what does the record say about Post-emergence action rating, Ipopur. for COCCOCc1nc(C(F)F)ccc1C(=O)C1=C(O)C2CCC(C2)C1=O (centres unmarked) ?
2

Please report the recorded Post-emergence action rating, Ipopur. for CCN(CC)CC.O=C(C1=C(O)C2CCC(C2)C1=O)c1ccc(C(F)(F)F)nc1COC1CCCO1 (centres unmarked) [A837-B52 (Et3NH+)] .
2

Need Post-emergence action rating, Ipopur., item O=C(C1=C(O)C2CCC(C2)C1=O)c1ccc(C(F)(F)F)nc1COCCCl (centres unmarked)
2

====

Tested on: Monocotyledonous and dicotyledonous test plants
Test: Post-emergence herbicidal action, greenhouse pot test, sprayed at the 2- to 3-leaf stage, 9-level rating after 2 to 3 weeks
Assay type: in vivo
Conditions: Echino., 250 g/ha, rated after 2 to 3 weeks, 9-level scale
Parameter Measured: Post-emergence action rating, Echino.

Worked examples, 3 compounds total:
Value lookup for Post-emergence action rating, Echino.; key = COCCCOCc1nc(C(F)(F)F)ccc1C(=O)C1=C(O)C2CCC(C2)C1=O (stereo not shown) [A846-B52]
2

Which measured Post-emergence action rating, Echino. value corresponds to CC(=O)OCc1nc(C(F)(F)F)ccc1C(=O)C1=C(O)C2CCC(C2)C1=O (stereo not shown) [A833-B52, (H4)] ?
4

Entry COCCOCc1nc(C(F)(F)F)ccc1C(=O)C1=C(O)C2CCC(C2)C1=O (stereo not shown) [A10-B52, (H3)] has what Post-emergence action rating, Echino.?
2

Next:
Which Post-emergence action rating, Echino. value is on record for CSCCOCc1nc(C(F)(F)F)ccc1C(=O)C1=C(O)C2CCC(C2)C1=O (stereo not shown) [A817-B52] ?
2

====

Test system: Monocotyledonous and dicotyledonous test plants
Test: Post-emergence herbicidal action, greenhouse pot test, sprayed at the 2- to 3-leaf stage, 9-level rating after 2 to 3 weeks
Assay type: in vivo
Conditions: Amaranth, 250 g/ha, rated after 2 to 3 weeks, 9-level scale
Procedure: Post-Emergence Herbicidal Action Monocotyledonous and dicotyledonous test plants are grown in standard soil in pots. […] After a test period of 2 to 3 weeks, the test is evaluated using a 9-level scale of rating (1=complete damage, 9=no effect). […]
Recorded Post-emergence action rating, Amaranth, one value per entry.
The answer should be a number; do not append a unit.

Record CCCOCCOCc1nc(C(F)(F)F)ccc1C(=O)C1=C(O)C2CCC(C2)C1=O (centres unmarked) : what is its Post-emergence action rating, Amaranth with Monocotyledonous and dicotyledonous test plants?
1

====

Tested on: Monocotyledonous and dicotyledonous test plants
Experiment: Post-emergence herbicidal action, greenhouse pot test, sprayed at the 2- to 3-leaf stage, 9-level rating after 2 to 3 weeks
Type: in vivo
Parameters: key: 9-level scale: 1 = complete damage, 9 = no effect
Conditions: Ipopur., 250 g/ha, rated after 2 to 3 weeks, 9-level scale
# note: exactly 2 is not below, so it is NO; use YES for Post-emergence action rating, Ipopur. strictly under it

Given COCCOCc1nc(C(F)(F)F)ccc1C(=O)c1cnn(C)c1OS(C)(=O)=O [A10-C28] , is recorded Post-emergence action rating, Ipopur. strictly lower than 2?
NO

Given the entry O=C(C1=C(O)C2CCC(C2)C1=O)c1ccc(C(F)(F)F)nc1COCCCO (centres unmarked) [A847-B52] , would its reported Post-emergence action rating, Ipopur. be below 2?
NO

is_below(Post-emergence action rating, Ipopur., 2) for COCCOCc1nc(C(F)(F)F)ccc1C(=O)c1cnn(C)c1OS(=O)(=O)c1ccc(C)cc1 [A10-C29] ?
YES

Strictly below 2: is that where Post-emergence action rating, Ipopur. of CC#CCOCc1nc(C(F)(F)F)ccc1C(=O)c1cnn(C)c1O [A20-C5] sits?
NO

Does this molecule meet the criterion Post-emergence action rating, Ipopur. < 2? O=C(C1=C(O)C2CCC(C2)C1=O)c1ccc(C(F)(F)F)nc1COCc1ccccc1 (centres unmarked) [A67-B52]
NO

I wonder whether CCCCCCCC(=O)OCc1nc(C(F)(F)F)ccc1C(=O)C1=C(O)C2CCC(C2)C1=O (centres unmarked) [A843-B52] has Post-emergence action rating, Ipopur. below 2. Can you tell?
NO

Is Post-emergence action rating, Ipopur. of O=C(C1=C(O)C2CCC(C2)C1=O)c1ccc(C(F)(F)F)nc1COC1CCCCC1 (centres unmarked) [A27-B52] strictly below 2?
NO

State whether 2 exceeds Post-emergence action rating, Ipopur. recorded for C=CCOCCOCc1nc(C(F)(F)F)ccc1C(=O)C1=C(O)C2CCC(C2)C1=O (centres unmarked) [A840-B52] .
NO
